# target_of_assay: BKB1 receptors (Homo sapiens)
# Construct: Human (IMR-90) lung fibroblast cells expressing native B1 receptors; endogenous in cells
# assay_details: Calcium mobilization assay (FLIPR), B1 receptors in IMR-90 cells
# stated_conditions: Human IMR-90 lung fibroblast cells, up-regulated BKB1 receptors, agonist desArg10-kallidin (DAKD) 2 to 8 nM, calcium-dependent fluorescence
# Procedure: Calcium mobilization assay (FLIPR)—Human (IMR-90) lung fibroblast cells expressing native B1 receptors were harvested by trypsinization and seeded into black wall/clear bottom 96-well plates (Costar 3904; Corning Life Sciences, Acton, Mass.) at approximately 13,000 cells/well. After 1 day incubation, cells were treated with […] (0.35 ng/ml) in 10% FBS/MEM for 2 h to up-regulate BKB1 receptors. […]
IC50 values for the molecules below.
readout: IC50 (µM)

INSERT INTO assay_data (molecule, readout, unit_label, value_measured) VALUES
  ('CC(C(=O)Nc1ccncc1)c1ccc(Nc2cnc3ccccc3c2)cc1 (stereo not drawn)', 'IC50', 'µM', 5.25),
  ('COc1cccc(Nc2ccc(C(C)C(=O)NC3CCN(Cc4ccccc4)CC3)cc2)c1 (stereo not drawn)', 'IC50', 'µM', 7.76),
  ('CCn1cc(NC(=O)C(C)c2ccc(C(=O)c3ccccc3)s2)c(C)n1 (stereo not drawn)', 'IC50', 'µM', 2.63),
  ('CC(C(=O)NCCC1CCCN1C)c1ccc(Oc2cccc3ccccc23)cc1 (stereo not drawn)', 'IC50', 'µM', 4.79),
  ('CC(C(=O)NCCNc1ccccc1)c1cccc(Oc2cccc(F)c2)c1 (stereo not drawn)', 'IC50', 'µM', 7.24),
  ('Cc1cc(NC(=O)C(C)c2cccc(C(=O)c3ccccc3)c2)n(C)n1 (stereo not drawn)', 'IC50', 'µM', 9.77),
  ('CC(C(=O)NCCN1CCCC1)c1cccc(Oc2cccc(OC(F)(F)F)c2)c1 (stereo not drawn)', 'IC50', 'µM', 7.76),
  ('COc1cc(Nc2cccc(C(C)C(=O)Nn3cccc3)c2)cc(C(F)(F)F)c1 (stereo not drawn)', 'IC50', 'µM', 14.5),
  ('COc1cc(Nc2cccc(C(C)C(=O)Nc3ccncn3)c2)cc(C(F)(F)F)c1 (stereo not drawn)', 'IC50', 'µM', 5.25);

* * *

# target_of_assay: BKB1 receptors (Homo sapiens, UniProt P46663)
# Construct: Human (IMR-90) lung fibroblast cells expressing native B1 receptors; endogenous in cells
# Sequence (P46663 whole entry): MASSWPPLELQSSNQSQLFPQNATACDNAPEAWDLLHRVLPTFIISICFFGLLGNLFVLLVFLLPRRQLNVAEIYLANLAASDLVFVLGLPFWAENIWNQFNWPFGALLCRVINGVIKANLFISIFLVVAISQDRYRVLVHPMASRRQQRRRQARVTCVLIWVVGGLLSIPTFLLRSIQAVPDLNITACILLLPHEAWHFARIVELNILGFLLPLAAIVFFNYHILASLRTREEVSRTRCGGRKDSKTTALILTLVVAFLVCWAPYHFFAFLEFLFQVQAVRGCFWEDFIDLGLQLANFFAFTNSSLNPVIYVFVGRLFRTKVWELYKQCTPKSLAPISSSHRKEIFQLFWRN
# assay_details: Calcium mobilization assay (FLIPR), B1 receptors in IMR-90 cells
# stated_conditions: Human IMR-90 lung fibroblast cells, up-regulated BKB1 receptors, agonist desArg10-kallidin (DAKD) 2 to 8 nM, calcium-dependent fluorescence
Entries annotated with measured IC50
readout: IC50

INSERT INTO measurements (molecule, target_of_assay, readout, value_measured) VALUES
  ('CC(C(=O)Nc1cc(Cl)cc(Cl)c1S(N)(=O)=O)c1ccc(OS(=O)(=O)c2ccccc2Cl)cc1 (centres unmarked) [Compound 81]', 'BKB1 receptors (Homo sapiens, UniProt P46663)', 'IC50', '8.71 µM'),
  ('COc1cccc(CN(C)CCCNC(=O)C(C)c2ccc(OS(=O)(=O)C(F)(F)F)cc2)c1 (centres unmarked) [Compound 50]', 'BKB1 receptors (Homo sapiens, UniProt P46663)', 'IC50', '3.63 µM'),
  ('COc1cccc(Nc2ccc(C(C)C(=O)Nc3cc(C)nn3C)cc2)c1OC (centres unmarked) [Compound 25]', 'BKB1 receptors (Homo sapiens, UniProt P46663)', 'IC50', '3.09 µM'),
  ('CC(C(=O)Nn1cnnc1)c1ccc(Oc2cccc3ccccc23)cc1 (centres unmarked) [Compound 64]', 'BKB1 receptors (Homo sapiens, UniProt P46663)', 'IC50', '8.91 µM'),
  ('CC(C(N)=O)c1cccc(Nc2ccc3c(c2)OC(F)(F)O3)c1 (centres unmarked) [Compound 76]', 'BKB1 receptors (Homo sapiens, UniProt P46663)', 'IC50', '8.91 µM'),
  ('CC(C(=O)NCCOc1ccc(F)cc1)c1cccc(OS(=O)(=O)C(F)(F)F)c1 (centres unmarked) [Compound 20]', 'BKB1 receptors (Homo sapiens, UniProt P46663)', 'IC50', '16.6 µM'),
  ('Cc1ccc(Cl)c(Nc2ccc(C(C)C(=O)NCCN3CCOCC3)cc2)c1Cl (centres unmarked) [Compound 16]', 'BKB1 receptors (Homo sapiens, UniProt P46663)', 'IC50', '12 µM'),
  ('CCCC/C=C/c1cccc(C(C)C(=O)Nc2ccncn2)c1 (centres unmarked) [Compound 28]', 'BKB1 receptors (Homo sapiens, UniProt P46663)', 'IC50', '8.51 µM'),
  ('CCOCCCNC(=O)C(C)c1cccc(Nc2cc(OC)cc(C(F)(F)F)c2)c1 (centres unmarked) [Compound 52]', 'BKB1 receptors (Homo sapiens, UniProt P46663)', 'IC50', '8.91 µM'),
  ('CC(F)(C(=O)NCCNc1ccccn1)c1ccc(OS(=O)(=O)C(F)(F)F)cc1 (centres unmarked) [Compound 3]', 'BKB1 receptors (Homo sapiens, UniProt P46663)', 'IC50', '13.2 µM'),
  ('CC(C(=O)Nc1ccncn1)c1ccc(Oc2ccc(F)cc2)cc1 (centres unmarked) [Compound 72]', 'BKB1 receptors (Homo sapiens, UniProt P46663)', 'IC50', '3.39 µM'),
  ('CC(C(=O)Nc1ccc(Cc2ccncc2)cc1)c1ccc(Nc2nc(C(F)(F)F)cs2)cc1 (centres unmarked) [Compound 44]', 'BKB1 receptors (Homo sapiens, UniProt P46663)', 'IC50', '11.5 µM'),
  ('CC(C(=O)Nc1ccncn1)c1cccc(Nc2ccc(N3CCOCC3)cc2)c1 (centres unmarked) [Compound 15]', 'BKB1 receptors (Homo sapiens, UniProt P46663)', 'IC50', '9.12 µM'),
  ('COc1cc(Nc2cccc(C(C)C(=O)NCCNCc3ccccc3)c2)cc(C(F)(F)F)c1 (centres unmarked) [Compound 57]', 'BKB1 receptors (Homo sapiens, UniProt P46663)', 'IC50', '3.47 µM'),
  ('CCn1nc(C)cc1NC(=O)C(C)c1ccc(Nc2nc(C(F)(F)F)cs2)cc1 (centres unmarked) [Compound 41]', 'BKB1 receptors (Homo sapiens, UniProt P46663)', 'IC50', '10 µM'),
  ('COc1cccc(CN(C)CCNC(=O)C(C)c2ccc(Nc3nc(C(F)(F)F)co3)cc2)c1 (centres unmarked) [Compound 31]', 'BKB1 receptors (Homo sapiens, UniProt P46663)', 'IC50', '7.76 µM'),
  ('CC(C(=O)NCCCNC1CCCCC1)c1ccc(Oc2cccc3ccccc23)cc1 (centres unmarked) [Compound 63]', 'BKB1 receptors (Homo sapiens, UniProt P46663)', 'IC50', '3.89 µM');

* * *

# target_of_assay: BKB1 receptors (Homo sapiens)
# Construct: Human (IMR-90) lung fibroblast cells expressing native B1 receptors; endogenous in cells
# assay_details: Calcium mobilization assay (FLIPR), B1 receptors in IMR-90 cells
# stated_conditions: Human IMR-90 lung fibroblast cells, up-regulated BKB1 receptors, agonist desArg10-kallidin (DAKD) 2 to 8 nM, calcium-dependent fluorescence
pIC50: −log10 of the molar value.
Use 5 as the dividing line for pIC50, with the line itself on the TRUE side and lower values as FALSE.

INSERT INTO assay_data (compound, target_of_assay, class_assignment) VALUES
  ('COc1cccc(Nc2ccc(C(C)C(=O)Nc3ccncn3)cc2)c1OC (centres unmarked) [Compound 26]', 'BKB1 receptors (Homo sapiens)', 'TRUE'),
  ('CCc1cc(NC(=O)C(C)c2ccc(Nc3nc(C(F)(F)F)co3)cc2)[nH]n1 (centres unmarked) [Compound 29]', 'BKB1 receptors (Homo sapiens)', 'TRUE'),
  ('CC(F)(C(N)=O)c1ccc(OS(=O)(=O)C(F)(F)F)cc1 (centres unmarked) [Compound 1]', 'BKB1 receptors (Homo sapiens)', 'TRUE'),
  ('CC(C(=O)Nc1ccncc1)c1ccc(Oc2cccc(F)c2)cc1 (centres unmarked) [Compound 68]', 'BKB1 receptors (Homo sapiens)', 'TRUE'),
  ('CC(=O)NCCNC(=O)C(C)c1ccc(Oc2cccc3ccccc23)cc1 (centres unmarked) [Compound 66]', 'BKB1 receptors (Homo sapiens)', 'TRUE'),
  ('CC(C(=O)NCCNCc1ccccc1)c1ccc(Oc2cccc3ccccc23)cc1 (centres unmarked) [Compound 61]', 'BKB1 receptors (Homo sapiens)', 'TRUE'),
  ('C=C(C)CNC(=O)C(C)c1cccc(C(=O)c2cccs2)c1 (centres unmarked) [Compound 23]', 'BKB1 receptors (Homo sapiens)', 'FALSE'),
  ('CC(C)(C)NC(=O)CNC(=O)C(C)(C)c1ccc(OS(=O)(=O)C(F)(F)F)cc1 [Compound 6]', 'BKB1 receptors (Homo sapiens)', 'FALSE'),
  ('Cc1ccnn1CCNC(=O)C(C)(F)c1ccc(OS(=O)(=O)C(F)(F)F)cc1 (centres unmarked) [Compound 2]', 'BKB1 receptors (Homo sapiens)', 'TRUE');
